Measured values drawn from ChEMBL document CHEMBL1921726 for this set.

# test: Inhibition of human Lactate dehydrogenase isoform 5 using 200 uM of NADH and 25 uM to 1 mM of sodium pyruvate by double reciprocal Lineweaver-Burk plot analysis
assayReadout: Ki (µM)

The molecule identified as CN(c1ccccc1)S(=O)(=O)c1ccc2cc(C(=O)O)n(O)c2c1 registered its Ki at 9.2

The molecule identified as Cc1ccc(N(C)S(=O)(=O)c2ccc3cc(C(=O)O)n(O)c3c2)cc1 registered its Ki at 20

The molecule identified as CN(c1ccc(C(F)(F)F)cc1)S(=O)(=O)c1ccc2cc(C(=O)O)n(O)c2c1 registered its Ki at 6

[I] CCCCN(c1ccccc1)S(=O)(=O)c1ccc2cc(C(=O)O)n(O)c2c1
[II] CN(c1ccc(Cl)cc1)S(=O)(=O)c1ccc2cc(C(=O)O)n(O)c2c1
Parameter check: reported Ki is higher for which label, I or II ? Output the label that corresponds to your choice.
I
(I: 90 µM, II: 5.6 µM)

----------
# test: Inhibition of human Lactate dehydrogenase isoform 5 using 200 uM of NADH and 25 uM to 1 mM of sodium pyruvate by double reciprocal Lineweaver-Burk plot analysis
pKi: −log10 of the molar value.
assayReadout: pKi

[A] CN(c1cccc(Cl)c1)S(=O)(=O)c1ccc2cc(C(=O)O)n(O)c2c1
[B] CN(c1ccccc1Cl)S(=O)(=O)c1ccc2cc(C(=O)O)n(O)c2c1
[C] O=C(O)c1cc2ccc(-c3ccc(S(=O)(=O)n4ccc5ccccc54)cc3)cc2n1O
# desc sort on pKi across 3 compounds Return value: ordered labels per request.
C, B, A
(C: 5.06, B: 4.60, A: 4.37)

[A] CN(c1ccccc1)S(=O)(=O)c1ccc(-c2ccc3cc(C(=O)O)n(O)c3c2)cc1
[B] CN(c1ccc(Cl)cc1Cl)S(=O)(=O)c1ccc2cc(C(=O)O)n(O)c2c1
Parameter check: reported pKi is higher for which label, A or B ? Output the label that corresponds to your choice.
A
(A: 4.66, B: 4.40)

----------
# test: Inhibition of human Lactate dehydrogenase isoform 5 using 2 mM of sodium pyruvate and 12.5 to 150 uM of NADH by double reciprocal Lineweaver-Burk plot analysis
pKi: −log10 of the molar value.
assayReadout: pKi

Answered cases to consult:
The molecule identified as CN(c1ccc(C(F)(F)F)cc1)S(=O)(=O)c1ccc2cc(C(=O)O)n(O)c2c1 registered its pKi at 4.59

The molecule identified as CN(c1ccccc1)S(=O)(=O)c1ccc2cc(C(=O)O)n(O)c2c1 registered its pKi at 4.77

The molecule identified as CN(c1ccccc1Cl)S(=O)(=O)c1ccc2cc(C(=O)O)n(O)c2c1 registered its pKi at 4.85

[A] CN(c1ccc(Cl)cc1)S(=O)(=O)c1ccc2cc(C(=O)O)n(O)c2c1
[B] Cc1ccc(N(C)S(=O)(=O)c2ccc3cc(C(=O)O)n(O)c3c2)cc1
Parameter check: reported pKi is higher for which label, A or B ? Output the label that corresponds to your choice.
A

[a] CN(c1ccccc1)S(=O)(=O)c1ccc(-c2ccc3cc(C(=O)O)n(O)c3c2)cc1
[b] CN(c1cccc(Cl)c1)S(=O)(=O)c1ccc2cc(C(=O)O)n(O)c2c1
[c] CN(c1ccc(F)cc1)S(=O)(=O)c1ccc2cc(C(=O)O)n(O)c2c1
[d] O=C(O)c1cc2ccc(-c3ccc(S(=O)(=O)n4ccc5ccccc54)cc3)cc2n1O
Hey, can you sort those molecules up there by pKi, smallest first? Return value: ordered labels per request.
c, b, a, d
(c: 3.90, b: 4.32, a: 4.80, d: 5.11)

[A] CN(c1ccc(Cl)cc1Cl)S(=O)(=O)c1ccc2cc(C(=O)O)n(O)c2c1
[B] CN(c1ccc(Cl)c(Cl)c1)S(=O)(=O)c1ccc2cc(C(=O)O)n(O)c2c1
Please indicate which item has the smaller measured pKi: A versus B Output the label that corresponds to your choice.
A
